Data provenance is ChEMBL document CHEMBL1139370.

# Thermodynamic solubility per entry
ASSAY COMMENT: Thermodynamic solubility in 0.1 M phosphate buffered saline at pH 6.5 by reversed phase HPLC
Assay type: physicochemical
CONDITION DETAILS: buffer
QUANTITY NAME: Thermodynamic solubility

{"columns": ["SMILES STRING", "REPORTED MEASUREMENT"],
 "data": [
  ["Clc1ccc(-n2c(-c3ccccc3Cl)nc3c(N4CCCCC4)ncnc32)cc1", "< 0.1 µgA/ml"],
  ["Clc1ccc(-n2c(-c3ccc(Cl)cc3Cl)nc3c(NC4CCCCC4)ncnc32)cc1", "< 0.1 ugA/ml"],
  ["Clc1ccc(-n2c(-c3ccc(Cl)cc3Cl)nc3c(N4CCCCC4)ncnc32)cc1", "< 0.1 ugA/ml"]
]}

###

ASSAY COMMENT: Lipophilicity, log D of the compound
Format: physicochemical
CONDITION DETAILS: octanol/water
# logD per entry
QUANTITY NAME: logD

{"columns": ["SMILES STRING", "REPORTED MEASUREMENT"],
 "data": [
  ["Clc1ccc(-n2c(-c3ccc(Cl)cc3Cl)nc3c(NC4CCCCC4)ncnc32)cc1", 6.3],
  ["Clc1ccc(-n2c(-c3ccc(Cl)cc3Cl)nc3c(N4CCCCC4)ncnc32)cc1", 5.9],
  ["Clc1ccc(-n2c(-c3ccccc3Cl)nc3c(N4CCCCC4)ncnc32)cc1", 5.4]
]}
